Provide the recorded residual percentage in human S9 fraction for the entries that follow.
assay: Stability to Phase I metabolism in human S9 liver fraction; type: in vitro ADME; conditions: human, 90 min, pH 7.4
Give your result in % as a bare value.

// field: residual percentage in human S9 fraction; key: O=C(NO)c1cc(F)c(Sc2nnc(-c3cncc(Br)c3)s2)c(F)c1 [compound 196] ; value = 26

Form: molecule = O=C(NO)c1cc(F)c(Cc2nnc(-c3ccccc3)s2)c(F)c1 [compound 198] ; residual percentage in human S9 fraction = 51

Per the record, O=C(NO)c1ccc(Cn2nnnc2-c2ccccc2)cc1 [comp. 215] has residual percentage in human S9 fraction of 82

residual percentage in human S9 fraction in this record for O=C(NO)c1ccc(Cc2noc(-c3ccnc(N4CCOCC4)c3)n2)cc1 [compound 193] : 71

// O=C(NO)c1cc(F)c(Cn2nnnc2-c2ccccn2)c(F)c1 [comp. 13] : residual percentage in human S9 fraction value = 98

# molecule CN(c1ccc(-c2nnc(Sc3c(F)cc(C(=O)NO)cc3F)s2)cc1)S(C)(=O)=O [compound 187] ; its residual percentage in human S9 fraction = 54

// field: residual percentage in human S9 fraction; key: CN1CCN(Cc2ccc(-c3nnc(Sc4ccc(C(=O)NO)cc4)n3C)o2)CC1 [comp. 209] ; value = 100

residual percentage in human S9 fraction reported for this molecule O=C(NO)c1ccc(Cc2nnc(-c3ccccc3)[nH]2)cc1 [comp. 216] : 84

Please fill in: residual percentage in human S9 fraction reported for COCCN(CCOC)c1cncc(-c2nc(Cc3c(F)cc(C(=O)NO)cc3F)no2)c1 [compound 200] = 37

These data points were gathered from patent US11351178B2.
